Data origin: ChEMBL document CHEMBL5550184

Test: Volume of distribution at steady state in Cynomolgus monkey at 0.167 mg/kg, iv measured upto 24 hrs by LC-MS/MS analysis
Format: ADME, organism-based, Macaca fascicularis
Conditions: in vivo, read-out: Vdss
Positions of bridges follow the written chain, without caps; N, C: chain ends. Non-standard residues stand in square brackets, D forms with d. Residues, ends and D or L forms follow the SMILES beside them. *: point of attachment. hPhe(3-Cl-4-CF3) = N[C@@H](CCc1ccc(C(F)(F)F)c(Cl)c1)C(=O)O; NMeGly(cPent) = CN[C@H](C(=O)O)C1CCCC1; NMeCha = CN[C@@H](CC1CCCCC1)C(=O)O; NMeD = CN[C@@H](CC(=O)O)C(=O)O; NMeL = CN[C@@H](CC(C)C)C(=O)O; Morpholide = C1CN(*)CCO1; NMeA = CN[C@@H](C)C(=O)O; Ac5c = NC1(C(=O)O)CCCC1; Aze = O=C(O)[C@@H]1CCN1; Sar = CNCC(=O)O
endpoint: Vd

[[record]]
compound = "CC[C@H](C)[C@@H]1NC(=O)[C@H](CC(C)C)N(C)C(=O)C[C@@H](C(=O)N2CCOCC2)N(C)C(=O)[C@H](C2CCCC2)N(C)C(=O)C2(CCCC2)NC(=O)[C@@H]2CCCN2C(=O)[C@H](CCc2ccc(C(F)(F)F)c(Cl)c2)NC(=O)CN(C)C(=O)[C@H](CC2CCCCC2)N(C)C(=O)[C@@H]2CCN2C(=O)[C@H](C)N(C)C1=O ([NMeL]I[NMeA][Aze][NMeCha][Sar][hPhe(3-Cl-4-CF3)]P[Ac5c][NMeGly(cPent)][NMeD]-Morpholide; lactam N-11)"
endpoint = "Vd"
recorded_measurement = "0.37 L/kg"


* * *

Assay: AUCinfinity in Cynomolgus monkey at 0.168 mg/kg, iv measured upto 24 hrs by LC-MS/MS analysis
Format: ADME, organism-based, Macaca fascicularis
Conditions: in vivo
Positions of bridges follow the written chain, without caps; N, C: chain ends. Non-standard residues stand in square brackets, D forms with d. Residues, ends and D or L forms follow the SMILES beside them. *: point of attachment. hPhe(3-Cl-4-CF3) = N[C@@H](CCc1ccc(C(F)(F)F)c(Cl)c1)C(=O)O; NMeGly(cPent) = CN[C@H](C(=O)O)C1CCCC1; NMeCha = CN[C@@H](CC1CCCCC1)C(=O)O; NMeD = CN[C@@H](CC(=O)O)C(=O)O; NMeL = CN[C@@H](CC(C)C)C(=O)O; NMeA = CN[C@@H](C)C(=O)O; Piperidide = C1CCN(*)CC1; Ac5c = NC1(C(=O)O)CCCC1; Aze = O=C(O)[C@@H]1CCN1; Sar = CNCC(=O)O
endpoint: AUC(0-inf) (ng·h/mL)

[[record]]
compound = "CC[C@H](C)[C@@H]1NC(=O)[C@H](CC(C)C)N(C)C(=O)C[C@@H](C(=O)N2CCCCC2)N(C)C(=O)[C@H](C2CCCC2)N(C)C(=O)C2(CCCC2)NC(=O)[C@@H]2CCCN2C(=O)[C@H](CCc2ccc(C(F)(F)F)c(Cl)c2)NC(=O)CN(C)C(=O)[C@H](CC2CCCCC2)N(C)C(=O)[C@@H]2CCN2C(=O)[C@H](C)N(C)C1=O ([NMeL]I[NMeA][Aze][NMeCha][Sar][hPhe(3-Cl-4-CF3)]P[Ac5c][NMeGly(cPent)][NMeD]-Piperidide; lactam N-11)"
recorded_measurement = 1590

